Assay: amyloid nucleation score (Sup35N fusion, yeast selection) (log enrichment); library NNK1; higher = more nucleation; inactive = no reads after selection;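 note: zero at mode of non-aggregating sequences after 7 days selection at 30°C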
measurement-label: amyloid nucleation score

{"substance": "EYDLRSGEG", "measurement-label": "amyloid nucleation score", "result": -0.332}
{"substance": "RWGATRFVVTS", "measurement-label": "amyloid nucleation score", "result": 0.304}
{"substance": "KSIRVNTMHRC", "measurement-label": "amyloid nucleation score", "result": 2.19}
{"substance": "SDDHVTVYNRDARRSRSCCL", "measurement-label": "amyloid nucleation score", "result": "inactive"}
{"substance": "RGYQNSLFTGMRRSSGSWSI", "measurement-label": "amyloid nucleation score", "result": 0.43}
{"substance": "VVTEKGLPWARQW", "measurement-label": "amyloid nucleation score", "result": -0.205}
{"substance": "NESEFLFSKAHRMVVIP", "measurement-label": "amyloid nucleation score", "result": "inactive"}
{"substance": "SGIYGCSGRQDIKSKNYGSR", "measurement-label": "amyloid nucleation score", "result": 1.12}

## Input Supply recorded amyloid nucleation score for RYTLILH here.
## Output -0.355

---

Experiment: amyloid nucleation score (Sup35N fusion, yeast selection) (log enrichment); library NNK3; higher = more nucleation; inactive = no reads after selection
measurement-label: amyloid nucleation score

Examples with answers:
{"sequence-content": "LYSPYLGCDNGATQFWSGTT", "amyloid nucleation score": 0.226}
{"sequence-content": "RFGFSVKFMYDDGMSAVCTS", "amyloid nucleation score": "inactive"}
{"sequence-content": "NTCDAPMSNGYAWWD", "amyloid nucleation score": -0.399}
{"sequence-content": "CIICFGPRNFESRRKQPDWR", "amyloid nucleation score": "inactive"}
{"sequence-content": "SIFMWLRNRC", "amyloid nucleation score": "inactive"}
{"sequence-content": "CTRNEYIEW", "amyloid nucleation score": "inactive"}
{"sequence-content": "QSGSVCIGSHASLRRAVVRR", "amyloid nucleation score": "inactive"}
{"sequence-content": "LTIINRFEFRQKNINGTYRK", "amyloid nucleation score": 2.73}

Now let's try a different one.
## Input Supply recorded amyloid nucleation score for QHRSESIFFVIKSLLLRGCI here.
## Output inactive

---

Experiment: amyloid nucleation score (Sup35N fusion, yeast selection) (log enrichment); library NNK2; higher = more nucleation; inactive = no reads after selection
Recorded amyloid nucleation score split into classes low end (below 0.08), middle (0.08 to below 2), high end (2 or more)

Check out these entries, answers already filled in.
{"substance": "FVDVKHDVVKAMRLWFR", "answer-label": "low end"}
{"substance": "AEADGYLFSALHTPYWTSGV", "answer-label": "middle"}
{"substance": "FLMRDFGMWFLFSNLLYITL", "answer-label": "low end"}
{"substance": "GFHIGDVCNYGVVFSSVARL", "answer-label": "high end"}
{"substance": "RPCQGLDTSVRCVLMMRYYR", "answer-label": "high end"}
{"substance": "CFFRKMPHCRLTTWRRVASI", "answer-label": "middle"}

## Input Consider LGCICMR . To which amyloid nucleation score class does it belong?
## Output high end

## Input Consider HFGDIDKYRAADAGVVERNP . To which amyloid nucleation score class does it belong?
## Output high end

---

Assay: amyloid nucleation score (Sup35N fusion, yeast selection) (log enrichment); library NNK2; higher = more nucleation; inactive = no reads after selection
Catalogue of amyloid nucleation score readings, one per entry.
// return just the number, without any unit appended

{"substance": "SHTPLTG", "amyloid nucleation score": -0.939}

## Input Supply recorded amyloid nucleation score for IGISLSSRPCYTFFSRLRWI here.
## Output -0.387

## Input Supply recorded amyloid nucleation score for VYWTKWGFLLVSSVKVLSLE here.
## Output -0.14

## Input Supply recorded amyloid nucleation score for SNCFNCYLISNWKYVTVSLS here.
## Output 6.23

## Input Supply recorded amyloid nucleation score for VWRTGRGYGRMWFLHISSMY here.
## Output -0.207

## Input Supply recorded amyloid nucleation score for GSSYNGNTRLTHVGRSVSVR here.
## Output -0.632

---

Test: amyloid nucleation score (Sup35N fusion, yeast selection) (log enrichment); library NNK2; higher = more nucleation; inactive = no reads after selection
Label rule met when amyloid nucleation score is at or above -0.3; otherwise label rule not met.

Check out these entries, answers already filled in.
{"substance": "KYCDWYL", "answer-label": "rule met"}
{"substance": "AREHPKY", "answer-label": "rule met"}
{"substance": "EMVIGMFKCTLISSIVLKTC", "answer-label": "rule met"}
{"substance": "EVSSGTCFGTS", "answer-label": "rule met"}
{"substance": "QMETSFL", "answer-label": "rule not met"}

# input for lookup
## Input # check: amyloid nucleation score of YLYSPLVMSSHYMLFT is greater than or equal to -0.3
## Output rule met

---

Experiment: amyloid nucleation score (Sup35N fusion, yeast selection) (log enrichment); library NNK3; higher = more nucleation; inactive = no reads after selection
measurement-label: amyloid nucleation score

{"substance": "GGLDFSSLSLMWYTQSSHKV", "result": "inactive"}
{"substance": "RIMGSPQSDS", "result": "inactive"}
{"substance": "CVRYWKLGVVLRDG", "result": "inactive"}
{"substance": "SPAQDQLAVRWVGVDRMMWW", "result": -0.434}
{"substance": "SHGLVIVRTKRPSNGFENGW", "result": "inactive"}
{"substance": "SDQVGFQIEVFCVKS", "result": "inactive"}
{"substance": "YKSNLLSYGALLISDFVLVR", "result": -0.108}
{"substance": "LVIWHIVKTAVMWTARTERL", "result": -0.409}

## Input Supply recorded amyloid nucleation score for KLMVNNQFISISINMSRCLF here.
## Output 1.63

---

Catalogue of amyloid nucleation score readings, one per entry.
Test: amyloid nucleation score (Sup35N fusion, yeast selection) (log enrichment); library NNK2; higher = more nucleation; inactive = no reads after selection
// return just the number, without any unit appended

Examples with answers:
{"substance": "YSLYINLSNAGIGVYPLKPA", "result-number": 7.25}
{"substance": "CAWFLTRWTVLSDLEGFY", "result-number": -1.35}
{"substance": "HQRGMNLISFVWHSENVRIW", "result-number": 1.07}
{"substance": "GGPSGQFCYPGGNKGYCN", "result-number": -0.724}
{"substance": "FDDLLEARYSFSVKVCY", "result-number": -0.947}
{"substance": "MKSSPA", "result-number": -0.395}
{"substance": "SCGIVRERFIVFELWSVCSG", "result-number": -0.147}
{"substance": "IDKGSKVFTGLGLLFCSKYF", "result-number": 7.2}
{"substance": "DEWQRGRTLSDTF", "result-number": -0.295}
{"substance": "IYIAKW", "result-number": -0.656}

## Input Supply recorded amyloid nucleation score for IHVPIQ here.
## Output -0.046

## Input Supply recorded amyloid nucleation score for NRVVHFISIFGFMNS here.
## Output 3.6

## Input Supply recorded amyloid nucleation score for NSFRISGLVDLVNNLSGYLS here.
## Output -1.34

## Input Supply recorded amyloid nucleation score for SYHVVCFVYVLVTFLLWCSH here.
## Output 2.22

## Input Supply recorded amyloid nucleation score for KALCLYNVVRKKRCT here.
## Output 0.152

## Input Supply recorded amyloid nucleation score for RGFRIVLINRCVILRSV here.
## Output 0.198

## Input Supply recorded amyloid nucleation score for YMMMIDL here.
## Output -1.26

---

Test: amyloid nucleation score (Sup35N fusion, yeast selection) (log enrichment); library NNK1; higher = more nucleation; inactive = no reads after selection
measurement-label: amyloid nucleation score
// return just the number, without any unit appended

{"substance": "SFESVFRHCRVRCCYGKIRQ", "result-number": 0.685}

## Input Supply recorded amyloid nucleation score for WNGTFNVPWSFDFRCSWVGK here.
## Output 0.719

## Input Supply recorded amyloid nucleation score for ELAAMCSWAYSN here.
## Output 0.097

## Input Supply recorded amyloid nucleation score for LSALFLVPHYLDMVNLHSWR here.
## Output -0.254

## Input Supply recorded amyloid nucleation score for FLFLYNVGVVIRSGYMFLRS here.
## Output 0.088

---

Experiment: amyloid nucleation score (Sup35N fusion, yeast selection) (log enrichment); library NNK2; higher = more nucleation; inactive = no reads after selection
Label true (1) when amyloid nucleation score is at or above -0.1; otherwise label false (0).

{"substance": "FSVTMDGYIRI", "answer-label": "true (1)"}
{"substance": "SVRFPITVMFRFSRWFTETY", "answer-label": "false (0)"}
{"substance": "QDCKAISSCLFRLLPELSLR", "answer-label": "false (0)"}
{"substance": "TVLGRGLILWDVGGLSE", "answer-label": "false (0)"}

# input for lookup
## Input # check: amyloid nucleation score of RKYNGCSFQHYGLSVRTRSL is greater than or equal to -0.1
## Output true (1)
